- protocol: xn = mol fraction of the nth substance listed, in the solute-free solvent
- assay_conditions: 283.15 K; x2 = 0.6101
result_type: solubility (g/100 g solution)
Field format: numeric only.

Illustrative cases are given below, each with its answer.
{"columns": ["compound", "solubility (g/100 g solution)"],
 "data": [
  ["CC(C)OC(=O)C(C)NP(=O)(OCC1OC(n2ccc(=O)[nH]c2=O)C(C)(F)C1O)Oc1ccccc1 (centres undefined) + CCO + O", 17],
  ["Nc1cccc(S(=O)(=O)c2cccc(N)c2)c1 + CCO + O", 0.914],
  ["COc1cc2c(cc1OC)-c1cc3ccc(OC)c(OC)c3c[n+]1CC2.[Cl-] + CCO + O", 2.02]
]}

Provide solubility (g/100 g solution) value for the following compound: Cc1[nH]c(=O)c(C#N)cc1-c1ccncc1 + CCO + O
0.00451

* * *

- protocol: xn = mol fraction of the nth substance listed, in the solute-free solvent
- assay_conditions: 318.15 K; x2 = 0.6
result_type: solubility (g/100 g solution)

{"columns": ["molecule", "reading"],
 "data": [
  ["S=c1[nH]ncs1 + CCO + O", 25.4],
  ["S=c1[nH]ncs1 + CCCO + O", 23.3],
  ["S=c1[nH]ncs1 + CC(C)=O + O", 37.6],
  ["OCCN(CCO)c1nc(N2CCCCC2)c2nc(N(CCO)CCO)nc(N3CCCCC3)c2n1 + CC(C)O + O", 26.6],
  ["S=c1[nH]ncs1 + CO + O", 23.3],
  ["CCCCCOC(=O)Nc1nc(=O)n(C2OC(C)C(O)C2O)cc1F (stereo not drawn) + CCOC(C)=O + CCCCCC", 1.45],
  ["OCCN(CCO)c1nc(N2CCCCC2)c2nc(N(CCO)CCO)nc(N3CCCCC3)c2n1 + CCO + O", 22.2]
]}

Provide solubility (g/100 g solution) value for the following molecule: OCCN(CCO)c1nc(N2CCCCC2)c2nc(N(CCO)CCO)nc(N3CCCCC3)c2n1 + CO + O
7.29

* * *

- protocol: xn = mol fraction of the nth substance listed, in the solute-free solvent
- assay_conditions: 288.15 K; x2 = 0.3103
result_type: solubility (g/100 g solution)
Field format: numeric only.

Illustrative cases are given below, each with its answer.
{"columns": ["molecule", "reading"],
 "data": [
  ["c1ccc2[nH]c(-c3cscn3)nc2c1 + CCCO + O", 0.243],
  ["Nc1nccnc1Cl + CC(C)O + O", 0.503],
  ["c1ccc2[nH]c(-c3cscn3)nc2c1 + CC(C)O + O", 0.109]
]}

Provide solubility (g/100 g solution) value for the following molecule: Nc1cccc(S(=O)(=O)c2cccc(N)c2)c1 + CC(C)O + O
0.459

* * *

// values below are reported solubility (g/100 g solution)
- protocol: xn = mol fraction of the nth substance listed, in the solute-free solvent
- assay_conditions: 313.15 K; x2 = 0.4
Field format: numeric only.

{"columns": ["compound", "reading"],
 "data": [
  ["Cc1ncc(C[n+]2csc(CCO)c2C)c(N)n1.O=[N+]([O-])[O-] + O + CC(C)=O", 0.437],
  ["CCCCCOC(=O)Nc1nc(=O)n(C2OC(C)C(O)C2O)cc1F (centres undefined) + CCOC(C)=O + CCCCCC", 0.341],
  ["CC(N)C(=O)O (centres undefined) + O + CC(C)=O", 0.0949]
]}

Provide solubility (g/100 g solution) value for the following compound: S=c1[nH]ncs1 + CCO + O
18.9
